# Tested Target: Protein phosphatase 1 catalytic subunit (PP1)
# Protocol Description: Inhibitory activity against recombinant Protein phosphatase 1
Endpoint Label: pIC50
In simple prose, pIC50 is minus the logarithm base ten of a concentration in moles per litre.

For this compound ( CCOC(=O)C1C(C(=O)O)[C@@H]2CC[C@H]1O2 (some centres not stated) ), measured pIC50 is 5.53
